System: PPARa:RXRa (NR concentration 270 nM, RXRa partner concentration 90 nM)
Experiment: PBM binding z-score (relative to random genomic background probes); higher = stronger binding; sequences stand for … in GC…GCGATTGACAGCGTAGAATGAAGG
# maps each entry to its PBM binding z-score

{"columns": ["SEQ STRING", "PBM binding z-score"],
 "data": [
  ["CCGGCTAGGTCAATGGTCAGCTAAAGCAGCTCGC", 2.91],
  ["CATTACGGGTCAAGGTTATAGCACGGGTGGTACG", 5.27],
  ["ACTAGCAGGCCAAGTTAGGGTCACTCAAACAAAG", 3.36],
  ["GATACAGGGTCACGGCCAGAGTACGCGTATTGAT", 6.26],
  ["ATCTCTATGTAAAGTTCAGTGAAAGATCGATAGA", 1.87],
  ["TCTATTATTTGATTAGGGCAACCGAAACAGCGGA", 1.34],
  ["TTCCCAAGGTGAAGGTCGTTGATCCCTCTGTAGA", 2.26],
  ["TCTAGTTGATCAAAGGTCACACACTCGAAATGCG", 5.8],
  ["CCAGACAGGTGAGACGGTAACTCAGCCTCGATTA", 0.144]
]}
